Biological target: T1, Biotin-conjugated ^MBPPBD (immobilised ligand of BLI) (human, UniProt P53350 345-603, biotin (Gly-Gly-Gly-Gly-Biotin conjugated to the C-terminal PLPETG peptide by sortase A))
T1 construct: PLK1, human, residues 345-603 (Polo-box domain construct); As m1 with a C-terminal PLPETG peptide used for biotin labelling; held on streptavidin sensors; also called immobilized PBD; source: E. coli BL21 (DE3), purified (HisTALON, SEC), biotin-labelled with sortase A; not shown: MBP, N-terminal, kept; PLPETG peptide conjugated with Gly-Gly-Gly-Gly-Biotin, C-terminal, kept
T1 sequence (P53350 345-603): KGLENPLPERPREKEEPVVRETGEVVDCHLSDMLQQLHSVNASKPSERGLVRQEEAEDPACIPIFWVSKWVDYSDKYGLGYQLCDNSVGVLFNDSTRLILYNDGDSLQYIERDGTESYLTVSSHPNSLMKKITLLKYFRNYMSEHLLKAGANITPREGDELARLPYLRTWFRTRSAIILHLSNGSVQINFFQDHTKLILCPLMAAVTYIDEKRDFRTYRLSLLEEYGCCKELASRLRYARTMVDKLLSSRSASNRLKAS
Assay: BLI; biotin-conjugated ^MBPPBD immobilised on streptavidin sensors, CENP-U variants as analyte; 25 °C, 20 mM HEPES pH 7.5, 2.5% glycerol, 300 mM NaCl, 0.1 mM TCEP, 0.3 g/L BSA, 0.05% Tween20; KD from koff/kon of the global fit
Conditions: both partners purified
Non-standard residues stand in square brackets, D forms with d. No end group written: not given here. pT = C[C@@H](OP(=O)(O)O)[C@H](N)C(=O)O
# Kd per entry
Give a bare numeral; the unit nM is implied.

// known answers, use as guide
LGENEKDEETAETADPPLHS[pT]AIYAD (domain or fragment, human, UniProt Q71F23 58-83, looked up, also: N-terminal MBP fusion protein, CENP-U (PBIP1), human, residues 58-83 (Motif 1); source: E. coli BL21 (DE3), purified; not shown: MBP, N-terminal, kept) [^MBPCENP-U^58-83/Y68A/F71A/pT78] :: 230
LGENEKDEETYETFDPPLHS[pT]AIYAD (domain or fragment, human, UniProt Q71F23 58-83, looked up, also: N-terminal MBP fusion protein, CENP-U (PBIP1), human, residues 58-83 (Motif 1); also called PLK1-phosphorylated ^MBPCENP-U^58-83; phosphorylated Motif 1; source: E. coli BL21 (DE3), purified; not shown: MBP, N-terminal, kept) [^MBPCENP-U^58-83/pT78] :: 2.5

// returns reported Kd for input ^MBPCENP-U^58-114/pT78/F87A/T98V (domain or fragment, human, UniProt Q71F23 58-114, looked up, also: N-terminal MBP fusion protein, source: E. coli BL21 (DE3), purified; phosphorylated in vitro with only PLK1; not shown: MBP, N-terminal, kept) LGENEKDEETYETFDPPLHS[pT]AIYADEEEASKHCGLSLSSVPPGKEAKRSSDTSGNE 7.2
